Hello, the source for this data is patent US20250345392A1, in case you need it.

assay: Clinical test in humans, single 30-min i.v. infusion, plasma PK
Assay type: in vivo
condition summary: human, in vivo, iv, single 30-min i.v. infusion 400 μg/kg, GM
Ends that are not written are not given here.
measurement kind: Vd (L/kg)
Response body: numeric value in L/kg, unit text excluded.

QUERY: I have this substance here, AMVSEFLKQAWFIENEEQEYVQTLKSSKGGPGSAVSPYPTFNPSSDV-NH2 [Peptide 1] , and I need its recorded Vd.
RESULT: 0.19

###

assay: Clinical test in humans, three 30-min i.v. infusions 8 hours apart, plasma PK
Assay type: in vivo
condition summary: human, in vivo, iv, 50 ug/kg, three 30-min i.v. infusions 8 h apart, 50 μg/kg each, mean, read-out: AUC0-24
Ends that are not written are not given here.
measurement kind: AUC(0-t) (ng·h/mL)
Response body: numeric value in ng·h/mL, unit text excluded.

QUERY: I have this substance here, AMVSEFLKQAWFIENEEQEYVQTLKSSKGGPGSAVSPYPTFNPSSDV-NH2 [Peptide 1] , and I need its recorded AUC(0-t).
RESULT: 1570

###

assay: Clinical test in humans, three 30-min i.v. infusions 8 hours apart, plasma PK
Assay type: in vivo
condition summary: human, plasma, iv, 50 μg/kg, three 30-min i.v. infusions 8 h apart, 50 μg/kg each, GM, read-out: Cmax1
Ends that are not written are not given here.
measurement kind: Cmax (ng/mL)
Response body: numeric value in ng/mL, unit text excluded.

QUERY: I have this substance here, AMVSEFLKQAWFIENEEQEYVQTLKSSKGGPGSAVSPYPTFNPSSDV-NH2 [Peptide 1] , and I need its recorded Cmax.
RESULT: 403

###

assay: Clinical test in humans, three 30-min i.v. infusions 8 hours apart, plasma PK
Type: in vivo
condition summary: human, in vivo, iv, 140 ug/kg, three 30-min i.v. infusions 8 h apart, 140 μg/kg each, mean, read-out: AUC0-t3
Ends that are not written are not given here.
measurement kind: AUC (ng·h/mL)
Response body: numeric value in ng·h/mL, unit text excluded.

QUERY: I have this substance here, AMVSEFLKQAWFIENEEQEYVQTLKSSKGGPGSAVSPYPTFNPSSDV-NH2 [Peptide 1] , and I need its recorded AUC.
RESULT: 1600

###

assay: 14-day repeat IV dose toxicity study with toxicokinetic evaluation on Day 1 and 14 in dogs
Assay type: in vivo, beagle dogs
condition summary: dog, in vivo, iv, 3 mg/kg/day, IV 3.0 mg/kg/day, female, Day 1, read-out: AUC0-∞ (converted)
Ends that are not written are not given here.
measurement kind: AUC(0-inf) (ng·h/mL)
Response body: numeric value in ng·h/mL, unit text excluded.

QUERY: I have this substance here, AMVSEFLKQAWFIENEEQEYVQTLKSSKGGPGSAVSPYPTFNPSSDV-NH2 [Peptide 1] , and I need its recorded AUC(0-inf).
RESULT: 1700

###

assay: Clinical test in humans, three 30-min i.v. infusions 8 hours apart, plasma PK
Type: in vivo
condition summary: human, in vivo, iv, 50 ug/kg, three 30-min i.v. infusions 8 h apart, 50 μg/kg each, GM, read-out: tmax3
Ends that are not written are not given here.
measurement kind: Tmax

QUERY: I have this substance here, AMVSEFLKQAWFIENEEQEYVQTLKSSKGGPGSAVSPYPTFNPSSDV-NH2 [Peptide 1] , and I need its recorded Tmax.
RESULT: 16.5 h

###

assay: Clinical test in humans, three 30-min i.v. infusions 8 hours apart, plasma PK
Format: in vivo
condition summary: human, plasma, iv, 250 μg/kg, three 30-min i.v. infusions 8 h apart, 250 μg/kg each, GM, read-out: Cmax2
Ends that are not written are not given here.
measurement kind: Cmax (µg/mL)
Response body: numeric value in µg/mL, unit text excluded.

QUERY: I have this substance here, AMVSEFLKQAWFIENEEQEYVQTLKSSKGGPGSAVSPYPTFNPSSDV-NH2 [Peptide 1] , and I need its recorded Cmax.
RESULT: 1.8

###

assay: Clinical test in humans, three 30-min i.v. infusions 8 hours apart, plasma PK
Format: in vivo
condition summary: human, in vivo, iv, 250 ug/kg, three 30-min i.v. infusions 8 h apart, 250 μg/kg each, median, read-out: Global tmax
Ends that are not written are not given here.
measurement kind: Tmax (h)
Response body: numeric value in h, unit text excluded.

QUERY: I have this substance here, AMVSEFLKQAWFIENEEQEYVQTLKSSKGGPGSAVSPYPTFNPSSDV-NH2 [Peptide 1] , and I need its recorded Tmax.
RESULT: 8.5

###

assay: Clinical test in humans, single 30-min i.v. infusion, plasma PK
Type: in vivo
condition summary: human, in vivo, iv, 25 ug/kg, single 30-min i.v. infusion 25 μg/kg, mean
Ends that are not written are not given here.
measurement kind: Vd (L/kg)
Response body: numeric value in L/kg, unit text excluded.

QUERY: I have this substance here, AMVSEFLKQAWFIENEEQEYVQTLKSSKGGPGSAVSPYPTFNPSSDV-NH2 [Peptide 1] , and I need its recorded Vd.
RESULT: 0.14

###

assay: Clinical test in humans, three 30-min i.v. infusions 8 hours apart, plasma PK
Format: in vivo
condition summary: human, in vivo, iv, 250 ug/kg, three 30-min i.v. infusions 8 h apart, 250 μg/kg each, median, read-out: tmax3
Ends that are not written are not given here.
measurement kind: Tmax (h)
Response body: numeric value in h, unit text excluded.

QUERY: I have this substance here, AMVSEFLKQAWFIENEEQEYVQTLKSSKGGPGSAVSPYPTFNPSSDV-NH2 [Peptide 1] , and I need its recorded Tmax.
RESULT: 16.5

###

assay: Clinical test in humans, three 30-min i.v. infusions 8 hours apart, plasma PK
Format: in vivo
condition summary: human, plasma, iv, 100 μg/kg, three 30-min i.v. infusions 8 h apart, 100 μg/kg each, GM, read-out: Cmax3
Description: A total of 8 subjects were included in each group. In each group, 6 subjects received the active treatment and 2 received the placebo. […] Plasma samples were analyzed for Peptide 1 using validated Liquid chromatography—Tandem Mass spectrometry (LC-MS/MS) methods by Charles River Laboratories (CRL). […]
Ends that are not written are not given here.
measurement kind: Cmax (ng/mL)
Response body: numeric value in ng/mL, unit text excluded.

QUERY: I have this substance here, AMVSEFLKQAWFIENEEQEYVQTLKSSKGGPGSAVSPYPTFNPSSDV-NH2 [Peptide 1] , and I need its recorded Cmax.
RESULT: 958

###

assay: Clinical test in humans, three 30-min i.v. infusions 8 hours apart, plasma PK
Format: in vivo
condition summary: human, in vivo, iv, 50 ug/kg, three 30-min i.v. infusions 8 h apart, 50 μg/kg each, mean, read-out: AUC0-tau1
Ends that are not written are not given here.
measurement kind: AUC (ng·h/mL)
Response body: numeric value in ng·h/mL, unit text excluded.

QUERY: I have this substance here, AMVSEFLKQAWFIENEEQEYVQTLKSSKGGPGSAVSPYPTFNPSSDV-NH2 [Peptide 1] , and I need its recorded AUC.
RESULT: 513

###

assay: 14-day repeat dose IV toxicity study with toxicokinetic evaluation on Day 1 and Day 14 in rats
Type: in vivo, Wistar rats
condition summary: rat, in vivo, iv, 1 mg/kg/day, IV 1.0 mg/kg/day, male, Day 14
Ends that are not written are not given here.
measurement kind: C0 (ng/mL)
Response body: numeric value in ng/mL, unit text excluded.

QUERY: I have this substance here, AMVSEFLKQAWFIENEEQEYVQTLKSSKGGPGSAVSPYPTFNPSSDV-NH2 [Peptide 1] , and I need its recorded C0.
RESULT: 10300

###

assay: Clinical test in humans, three 30-min i.v. infusions 8 hours apart, plasma PK
Type: in vivo
condition summary: human, in vivo, iv, 250 ug/kg, three 30-min i.v. infusions 8 h apart, 250 μg/kg each, mean, read-out: Global Cmax
Ends that are not written are not given here.
measurement kind: Cmax (ng/mL)
Response body: numeric value in ng/mL, unit text excluded.

QUERY: I have this substance here, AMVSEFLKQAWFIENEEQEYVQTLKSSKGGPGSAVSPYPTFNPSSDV-NH2 [Peptide 1] , and I need its recorded Cmax.
RESULT: 2330

###

assay: Clinical test in humans, three 30-min i.v. infusions 8 hours apart, plasma PK
Type: in vivo
condition summary: human, plasma, iv, 250 μg/kg, three 30-min i.v. infusions 8 h apart, 250 μg/kg each, mean, read-out: Cmax1
Ends that are not written are not given here.
measurement kind: Cmax (ng/mL)
Response body: numeric value in ng/mL, unit text excluded.

QUERY: I have this substance here, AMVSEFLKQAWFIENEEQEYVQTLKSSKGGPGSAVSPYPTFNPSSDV-NH2 [Peptide 1] , and I need its recorded Cmax.
RESULT: 1960

###

assay: Clinical test in humans, single 30-min i.v. infusion, plasma PK
Assay type: in vivo
condition summary: human, in vivo, iv, 25 ug/kg, single 30-min i.v. infusion 25 μg/kg, GM, read-out: AUC0-t
Ends that are not written are not given here.
measurement kind: AUC(0-t) (ng·h/mL)
Response body: numeric value in ng·h/mL, unit text excluded.

QUERY: I have this substance here, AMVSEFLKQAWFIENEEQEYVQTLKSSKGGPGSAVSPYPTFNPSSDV-NH2 [Peptide 1] , and I need its recorded AUC(0-t).
RESULT: 130
